Below: a set of entries, each annotated with reported inhibition in vivo at 0.4 mg/kg.
Experiment: Antitumor activity against mouse Ridgway osteogenic sarcoma allografted in AKR mouse assessed as tumor growth inhibition at 0.40 mg/kg, ip administered daily for 8 to 10 days compound treatment commenced 8 days after tumor implantation
Assay type: functional
Conditions: route intraperitoneal, read-out: TGI
QUANTITY_MEASURED: inhibition in vivo at 0.4 mg/kg (%)

| COMPOUND | UNITS_OF_MEASURE | REPORTED_VALUE |
| --- | --- | --- |
| CC[C@]1(O)C[C@H]2CN(CCc3c([nH]c4ccccc34)[C@@](C(=O)OC)(c3cc4c(cc3OC)N(C)[C@H]3[C@@](O)(C(=O)NC)[C@H](O)[C@]5(CC)C=CCN6CC[C@]43[C@@H]65)C2)C1.O=S(=O)(O)O | % | 76 |
| CC[C@]1(O)C[C@H]2CN(CCc3c([nH]c4ccccc34)[C@@](C(=O)OC)(c3cc4c(cc3OC)N(C)[C@H]3[C@@](O)(C(=O)NCCN(C)C)[C@H](O)[C@]5(CC)C=CCN6CC[C@]43[C@@H]65)C2)C1 | % | 51 |
| CC[C@]1(O)C[C@H]2CN(CCc3c([nH]c4ccccc34)[C@@](C(=O)OC)(c3cc4c(cc3OC)N(C)[C@H]3[C@@](O)(C(=O)NC5CCCCC5)[C@H](O)[C@]5(CC)C=CCN6CC[C@]43[C@@H]65)C2)C1 | % | 51 |
| CC[C@]1(O)C[C@@H]2CN(CCc3c([nH]c4ccccc34)[C@@](C(=O)OC)(c3cc4c(cc3OC)N(C)[C@H]3[C@@](O)(C(N)=O)[C@H](O)[C@]5(CC)C=CCN6CC[C@]43[C@@H]65)C2)C1.O=S(=O)(O)O [VINDESINE SULFATE] | % | 76 |
| CC[C@]1(O)C[C@H]2CN(CCc3c([nH]c4ccccc34)[C@@](C(=O)OC)(c3cc4c(cc3OC)N(C)[C@H]3[C@@](O)(C(=O)NCC(O)CO)[C@H](O)[C@]5(CC)C=CCN6CC[C@]43[C@@H]65)C2)C1 (stereo not given in full) | % | 76 |

---

Assay: Antitumor activity against mouse Gardner lymphosarcoma allografted in C3H mouse assessed as tumor growth inhibition at 0.40 mg/kg, ip administered daily for 8 to 10 days
Format: functional
Conditions: route intraperitoneal, read-out: TGI
QUANTITY_MEASURED: inhibition in vivo at 0.4 mg/kg (%)

| COMPOUND | UNITS_OF_MEASURE | REPORTED_VALUE |
| --- | --- | --- |
| CC[C@]1(O)C[C@H]2CN(CCc3c([nH]c4ccccc34)[C@@](C(=O)OC)(c3cc4c(cc3OC)N(C)[C@H]3[C@@](O)(C(=O)NCCC(=N)OC)[C@H](O)[C@]5(CC)C=CCN6CC[C@]43[C@@H]65)C2)C1 | % | 0 |
| CC[C@]1(O)C[C@H]2CN(CCc3c([nH]c4ccccc34)[C@@](C(=O)OC)(c3cc4c(cc3OC)N(C)[C@H]3[C@@](O)(C(=O)NCCN)[C@H](O)[C@]5(CC)C=CCN6CC[C@]43[C@@H]65)C2)C1 | % | 0 |
| CC[C@]1(O)C[C@H]2CN(CCc3c([nH]c4ccccc34)[C@@](C(=O)OC)(c3cc4c(cc3OC)N(C)[C@H]3[C@@](O)(C(=O)NC5CCCCC5)[C@H](O)[C@]5(CC)C=CCN6CC[C@]43[C@@H]65)C2)C1 | % | 26 |
| CC[C@]1(O)C[C@H]2CN(CCc3c([nH]c4ccccc34)[C@@](C(=O)OC)(c3cc4c(cc3OC)N(C)[C@H]3[C@@](O)(C(=O)NC)[C@H](O)[C@]5(CC)C=CCN6CC[C@]43[C@@H]65)C2)C1.O=S(=O)(O)O | % | 76 |
| CC[C@]1(O)C[C@H]2CN(CCc3c([nH]c4ccccc34)[C@@](C(=O)OC)(c3cc4c(cc3OC)N(C)[C@H]3[C@@](O)(C(=O)NCCc5ccc(O)c(O)c5)[C@H](O)[C@]5(CC)C=CCN6CC[C@]43[C@@H]65)C2)C1 | % | 26 |

---

Assay: Antitumor activity against mouse Ridgway osteogenic sarcoma allografted in AKR mouse assessed as tumor growth inhibition at 0.10 mg/kg, ip administered daily for 8 to 10 days compound treatment commenced 8 days after tumor implantation
Format: functional
Settings: route intraperitoneal, read-out: TGI
QUANTITY_MEASURED: inhibition in vivo at 0.1 mg/kg (%)

| COMPOUND | QUANTITY_MEASURED | REPORTED_VALUE |
| --- | --- | --- |
| CCNC(=O)[C@@]1(O)[C@H](O)[C@]2(CC)C=CCN3CC[C@@]4(c5cc([C@@]6(C(=O)OC)C[C@@H]7CN(CCc8c6[nH]c6ccccc86)C[C@](O)(CC)C7)c(OC)cc5N(C)[C@@H]14)[C@@H]32.O=S(=O)(O)O | inhibition in vivo at 0.1 mg/kg | 0 |
| CC[C@]1(O)C[C@H]2CN(CCc3c([nH]c4ccccc34)[C@@](C(=O)OC)(c3cc4c(cc3OC)N(C)[C@H]3[C@@](O)(C(=O)NCC#N)[C@H](O)[C@]5(CC)C=CCN6CC[C@]43[C@@H]65)C2)C1.O=S(=O)(O)O | inhibition in vivo at 0.1 mg/kg | 0 |
| CC[C@]1(O)C[C@H]2CN(CCc3c([nH]c4ccccc34)[C@@](C(=O)OC)(c3cc4c(cc3OC)N(C)[C@H]3[C@@](O)(C(=O)NCCCO)[C@H](O)[C@]5(CC)C=CCN6CC[C@]43[C@@H]65)C2)C1 | inhibition in vivo at 0.1 mg/kg | 76 |
| CC[C@]1(O)C[C@H]2CN(CCc3c([nH]c4ccccc34)[C@@](C(=O)OC)(c3cc4c(cc3OC)N(C)[C@H]3[C@@](O)(C(=O)NCc5ccccc5)[C@H](O)[C@]5(CC)C=CCN6CC[C@]43[C@@H]65)C2)C1 | inhibition in vivo at 0.1 mg/kg | 0 |

---

Test system: B16
Test: Antitumor activity against mouse B16 cells allografted in C57BL/6 mouse assessed as prolongation of host survival at 0.90 mg/kg, ip administered on days 1,5 and 9
Format: functional
Details: route intraperitoneal
QUANTITY_MEASURED: survival at 0.9 mg/kg

| MOLECULE | ASSAYED_SYSTEM | QUANTITY_MEASURED | REPORTED_VALUE |
| --- | --- | --- | --- |
| CC[C@]1(O)C[C@H]2CN(CCc3c([nH]c4ccccc34)[C@@](C(=O)OC)(c3cc4c(cc3OC)N(C)[C@H]3[C@@](O)(C(=O)NCCSC(c5ccccc5)(c5ccccc5)c5ccccc5)[C@H](O)[C@]5(CC)C=CCN6CC[C@]43[C@@H]65)C2)C1 | B16 | survival at 0.9 mg/kg | 1% |
| CC[C@]1(O)C[C@H]2CN(CCc3c([nH]c4ccccc34)[C@@](C(=O)OC)(c3cc4c(cc3OC)N(C)[C@H]3[C@@](O)(C(=O)NCCSC(c5ccc(OC)cc5)(c5ccc(OC)cc5)c5ccc(OC)cc5)[C@H](O)[C@]5(CC)C=CCN6CC[C@]43[C@@H]65)C2)C1 | B16 | survival at 0.9 mg/kg | 28% |
| CC[C@]1(O)C[C@H]2CN(CCc3c([nH]c4ccccc34)[C@@](C(=O)OC)(c3cc4c(cc3OC)N(C)[C@H]3[C@@](O)(C(=O)NCCc5ccc(O)c(O)c5)[C@H](O)[C@]5(CC)C=CCN6CC[C@]43[C@@H]65)C2)C1 | B16 | survival at 0.9 mg/kg | 128% |
| CC[C@]1(O)C[C@H]2CN(CCc3c([nH]c4ccccc34)[C@@](C(=O)OC)(c3cc4c(cc3OC)N(C)[C@H]3[C@@](O)(C(=O)NCCc5ccc(O)cc5)[C@H](O)[C@]5(CC)C=CCN6CC[C@]43[C@@H]65)C2)C1 | B16 | survival at 0.9 mg/kg | 152% |
| CC[C@]1(O)C[C@H]2CN(CCc3c([nH]c4ccccc34)[C@@](C(=O)OC)(c3cc4c(cc3OC)N(C)[C@H]3[C@@](O)(C(=O)NCCO)[C@H](O)[C@]5(CC)C=CCN6CC[C@]43[C@@H]65)C2)C1.O=S(=O)(O)O | B16 | survival at 0.9 mg/kg | 97% |
| CC[C@]1(O)C[C@H]2CN(CCc3c([nH]c4ccccc34)[C@@](C(=O)OC)(c3cc4c(cc3OC)N(C)[C@H]3[C@@](O)(C(=O)NCCSC)[C@H](O)[C@]5(CC)C=CCN6CC[C@]43[C@@H]65)C2)C1.O=S(=O)(O)O | B16 | survival at 0.9 mg/kg | 58% |
| CC[C@]1(O)C[C@@H]2CN(CCc3c([nH]c4ccccc34)[C@@](C(=O)OC)(c3cc4c(cc3OC)N(C)[C@H]3[C@@](O)(C(N)=O)[C@H](O)[C@]5(CC)C=CCN6CC[C@]43[C@@H]65)C2)C1.O=S(=O)(O)O [VINDESINE SULFATE] | B16 | survival at 0.9 mg/kg | 144% |
| CC[C@]1(O)C[C@H]2CN(CCc3c([nH]c4ccccc34)[C@@](C(=O)OC)(c3cc4c(cc3OC)N(C)[C@H]3[C@@](O)(C(=O)NCCCSC)[C@H](O)[C@]5(CC)C=CCN6CC[C@]43[C@@H]65)C2)C1.O=S(=O)(O)O | B16 | survival at 0.9 mg/kg | 141% |
